B1: Calcium-binding protein 2, residues 155 to 219; numbered along this chain, Q9NPB3 (parent)
chain: RELRDAFREFDTNGDGRISVGELRAALKALLGERLSQREVDEILQDVDLNGDGLVDFEEFVRMMS

Variants of: B1
test details: abundance fitness (aPCA) (normalised: wild type 0, dead -1); higher = more abundant; growth selection in yeast, the domain comes from the species named
settings: Homo sapiens
Assign yes (1) to entries whose abundance fitness meets or exceeds -0.2; assign no (0) to the rest.

Prompt: Assess whether reported abundance fitness for RELRDAFREFDTNGDGRISVGELRAALKALLGERLSQREVMEILQDVDLNGDGLVDFEEFVRMMS [D41M] sits at -0.2 or higher.
Response: no (0)

Prompt: hey, is abundance fitness for this one >= -0.2? RELRDAFREFDTNGDGRIKVGELRAALKALLGERLSQREVDEILQDVDLNGDGLVDFEEFVRMMS [S19K]
Response: no (0)

Prompt: State whether the measured abundance fitness reaches -0.2, counting equality as reaching it, for RELRDAFREFDTNGDGRISVGELRAALKALLGERLSQREVDEIDQDVDLNGDGLVDFEEFVRMMS [L44D]
Response: yes (1)

Prompt: Quick check: does RELRDAFREFDTNGDGRISVGELRAALKALLGEQLSQREVDEILQDVDLNGDGLVDFEEFVRMMS [R34Q] have abundance fitness greater than or equal to -0.2?
Response: yes (1)

Prompt: Form field: abundance fitness at least -0.2? Entry: REIRDAFREFDTNGDGRISVGELRAALKALLGERLSQREVDEILQDVDLNGDGLVDFEEFVRMMS [L3I]
Response: yes (1)

Prompt: Is reported abundance fitness greater than or equal to -0.2 here: RELRDAFYEFDTNGDGRISVGELRAALKALLGERLSQREVDEILQDVDLNGDGLVDFEEFVRMMS [R8Y]
Response: yes (1)

Prompt: Decide: is the reported value of abundance fitness for RELRDAFSEFDTNGDGRISVGELRAALKALLGERLSQREVDEILQDVDLNGDGLVDFEEFVRMMS [R8S] equal to or greater than -0.2?
Response: yes (1)

Prompt: Assess whether reported abundance fitness for RELRDAFREFDTNGDGRISVGELRAALKALLGERLSQREVDEILQDVILNGDGLVDFEEFVRMMS [D48I] sits at -0.2 or higher.
Response: yes (1)

Prompt: Form field: abundance fitness at least -0.2? Entry: RELRDAFREFDTNGDGRISVGELRAALKALLGERLSQREVDEILQDVDLNGDGLVDFEHFVRMMS [E59H]
Response: yes (1)

Prompt: Assess whether reported abundance fitness for RELRDAFREFDTNGDGRISVGGLRAALKALLGERLSQREVDEILQDVDLNGDGLVDFEEFVRMMS [E22G] sits at -0.2 or higher.
Response: yes (1)

Prompt: Test whether the variant RELRDAFREFDTNGDGRISKGELRAALKALLGERLSQREVDEILQDVDLNGDGLVDFEEFVRMMS [V20K] records abundance fitness of -0.2 or higher.
Response: no (0)

Prompt: Has RELRDAFREFDTNGDGRISVGELRAALKALLGERLSQREVDEIMQDVDLNGDGLVDFEEFVRMMS [L44M] a recorded abundance fitness greater than or equal to -0.2?
Response: no (0)
